# System: HepG2
# protocol-summary: cytotoxicity call (relative viability < 0.9)
# test-context: 10 µM
Hit rate of the full screen: of about 39,000 compounds, about 3,300 (8.5%) were called active. What follows is part of a selection rich in actives, with near analogues and random picks from the rest.
Answer with one of the outcomes t (active), f (inactive)

Illustrative cases are given below, each with its answer.
COc1ccc([C@@H]([C@H](Cc2ccccc2)OC(C)=O)N2C[C@@H](NC(=O)C(Cl)(Cl)Cl)[C@@H]3[C@H]([C@@H]2Cc2ccccc2)N(C)O[C@H]3c2ccccc2)cc1 : f
COc1ccc([C@@H]([C@H](Cc2ccccc2)OC(C)=O)N2C[C@@H](CC(=O)N(C)C)[C@@H]3[C@H]([C@@H]2Cc2ccccc2)N(C)O[C@H]3c2ccccc2)cc1 : f
COc1ccc([C@@H]([C@H](Cc2ccccc2)OC(C)=O)N2C[C@H](CC(=O)N(C)C)[C@@H]3[C@H]([C@@H]2Cc2ccccc2)N(C)O[C@H]3c2ccccc2)cc1 : f
COc1ccc([C@@H]([C@H](Cc2ccccc2)OC(C)=O)N2C[C@@H](OC(C)=O)[C@@H]3[C@H]([C@@H]2Cc2ccccc2)N(C)O[C@H]3c2ccccc2)cc1 : f

Challenge: Outcome? COc1ccc([C@@H]([C@H](Cc2ccccc2)OC(C)=O)N2C[C@@H](CC(=O)N(C)C)[C@H]3[C@@H]([C@@H]2Cc2ccccc2)N(C)O[C@@H]3c2ccccc2)cc1
Response given: t

Challenge: Outcome? COc1ccc([C@@H]([C@H](Cc2ccccc2)OC(C)=O)N2C[C@@H]3[C@H]([C@@H]2Cc2ccccc2)N(C)O[C@@]3(O)[C@@H](O)c2ccccc2)cc1
Response given: f

---

# Tested on: HepG2
# protocol-summary: cytotoxicity call (relative viability < 0.9)
# test-context: 10 µM
Hit rate of the full screen: of about 39,000 compounds, about 3,300 (8.5%) were called active. The sample as a whole holds a higher share of actives than the screen did.
Answer with one of the outcomes yes for active, no for inactive

O=C(C[C@@H]1CC[C@@H](NC(=O)c2cccnc2)[C@H](CO)O1)NCCN1CCCCC1 : no
COc1ccc(S(=O)(=O)Nc2ccc3c(c2)CC(=O)N([C@H](C)CO)C[C@H](C)[C@H](CN(C)C)O3)cc1 : no
C[C@H](CO)N1C[C@H](C)[C@H](CN(C)Cc2ccc(Cl)c(Cl)c2)Oc2ccc(NS(=O)(=O)c3ccc(Cl)cc3)cc2C1=O : yes
CN(C)CCCCCCNC(=O)[C@@H]1C[C@@H]2C(=O)N[C@@H](CCCC[N+](C)(C)C)C(=O)N2[C@@H]1c1cccc(OCCO)c1 : no
CC(C)NC(=O)N(C)C[C@@H]1OCCCC[C@@H](C)Oc2ccc(NC(=O)C3CCCCC3)cc2C(=O)N([C@H](C)CO)C[C@@H]1C : no

Challenge: Outcome? C[C@@H]1CN([C@H](C)CO)C(=O)c2cc(NC(=O)CCCN(C)C)ccc2O[C@@H]1CN(C)S(=O)(=O)c1cn(C)cn1
Response given: no

Challenge: Outcome? c1ccc(-c2n[nH]c3c2CCC3)cc1
Response given: no

Challenge: Outcome? C[C@@H]1CN([C@@H](C)CO)C(=O)c2cc(NS(=O)(=O)c3ccc(Cl)cc3)ccc2O[C@@H]1CN(C)Cc1ccc(Cl)c(Cl)c1
Response given: yes

Challenge: Outcome? O=C1c2ccccc2[C@](Cc2ccccc2I)(C(=O)NCCN2CCOCC2)[C@H](c2ccc(CO)cc2)N1C1CCCCC1
Response given: yes

Challenge: Outcome? C[C@@H]1CCCCO[C@H](CN(C)S(=O)(=O)c2cn(C)cn2)[C@@H](C)CN([C@@H](C)CO)C(=O)c2cc(NC(=O)c3ccncc3)ccc2O1
Response given: no

Challenge: Outcome? CN(C)CCCNC(=O)[C@@]1(Cc2ccccc2I)c2ccccc2C(=O)N(C2CCCCC2)[C@H]1c1ccc(CO)cc1
Response given: yes

Challenge: Outcome? C[C@@H]1CN([C@@H](C)CO)C(=O)c2cc(NC(=O)c3ccncc3)ccc2O[C@@H]1CN(C)S(=O)(=O)c1cccs1
Response given: no

Challenge: Outcome? COc1ccc(CN(C)C[C@H]2OCCCC[C@@H](C)Oc3ccc(NC(=O)NC(C)C)cc3C(=O)N([C@H](C)CO)C[C@@H]2C)cc1
Response given: no

Challenge: Outcome? CN(C)CCCN1C(=O)[C@@]2(Cc3ccccc31)c1ccccc1C(=O)N(C1CCCCC1)[C@H]2c1ccc(CO)cc1
Response given: no

Challenge: Outcome? C=C(CO)C(=O)O[C@@H]1[C@H]2C(=C)C(=O)O[C@@H]2[C@H]2O[C@]2(C)CC/C=C(/C(=O)OC)[C@H]1OC(C)=O
Response given: yes

Challenge: Outcome? NCCCCCc1nnc(SCC(N)=O)o1
Response given: no

Challenge: Outcome? O=C(Cc1ccccn1)NCC[C@@H]1CC[C@H](NC(=O)CN2CCOCC2)[C@@H](CO)O1
Response given: no
